biological target: tyrosine kinase of EGFR (TK-EGFR) (Homo sapiens, UniProt P00533); construct: tyrosine kinase of EGFR (TK-EGFR), recombinant protein from E. coli; experiment: ADP-Glo kinase assay with recombinant TK-EGFR, […] ATP
Sequence (P00533 25-1210): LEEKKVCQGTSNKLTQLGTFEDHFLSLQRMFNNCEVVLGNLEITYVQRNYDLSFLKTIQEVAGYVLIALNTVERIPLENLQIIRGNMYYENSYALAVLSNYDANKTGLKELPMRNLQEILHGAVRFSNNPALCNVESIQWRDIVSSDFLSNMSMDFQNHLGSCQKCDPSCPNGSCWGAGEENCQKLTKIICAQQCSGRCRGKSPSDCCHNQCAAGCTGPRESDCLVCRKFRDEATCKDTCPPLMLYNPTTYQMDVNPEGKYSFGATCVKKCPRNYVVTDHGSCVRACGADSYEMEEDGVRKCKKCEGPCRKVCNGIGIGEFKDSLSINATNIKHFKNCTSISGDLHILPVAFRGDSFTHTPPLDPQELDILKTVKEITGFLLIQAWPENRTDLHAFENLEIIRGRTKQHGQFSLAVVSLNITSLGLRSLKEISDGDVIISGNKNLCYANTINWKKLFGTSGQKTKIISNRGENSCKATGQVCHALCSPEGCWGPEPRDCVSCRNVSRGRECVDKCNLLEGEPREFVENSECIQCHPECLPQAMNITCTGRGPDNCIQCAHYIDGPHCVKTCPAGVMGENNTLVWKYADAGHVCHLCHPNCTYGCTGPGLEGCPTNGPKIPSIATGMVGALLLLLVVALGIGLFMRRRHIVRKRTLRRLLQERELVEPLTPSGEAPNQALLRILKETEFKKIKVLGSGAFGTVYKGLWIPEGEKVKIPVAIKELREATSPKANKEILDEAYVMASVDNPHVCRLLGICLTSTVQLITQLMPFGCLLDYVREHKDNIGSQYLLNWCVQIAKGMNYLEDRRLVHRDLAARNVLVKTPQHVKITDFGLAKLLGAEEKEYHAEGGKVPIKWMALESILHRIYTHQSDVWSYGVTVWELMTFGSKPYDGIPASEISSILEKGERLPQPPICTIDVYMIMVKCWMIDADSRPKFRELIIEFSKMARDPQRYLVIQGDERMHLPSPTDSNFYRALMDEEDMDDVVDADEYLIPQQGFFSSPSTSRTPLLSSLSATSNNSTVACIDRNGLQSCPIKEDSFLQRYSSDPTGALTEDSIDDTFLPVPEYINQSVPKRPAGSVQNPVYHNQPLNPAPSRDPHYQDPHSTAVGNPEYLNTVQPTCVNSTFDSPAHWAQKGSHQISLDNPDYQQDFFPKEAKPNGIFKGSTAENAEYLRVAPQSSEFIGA
observation_type: pIC50
Quick note: pIC50 means taking -log10 of the concentration in moles per liter.

Per the record, NS(=O)(=O)c1cccc(Nc2nccc(-c3ccccc3)n2)c1 [13f] has pIC50 of 7.64
